Tested on: A549 NSCLC
Assay: NCI tumour cell line growth inhibition, 48 h
measure: TGI

Nc1nc2c(C(=O)O)c3ccc([N+](=O)[O-])cc3c(=O)n2c2ccccc12 = > 100 µM
COc1cccc(Oc2ccccc2NC(=O)CNC(=O)c2cccc3ccccc23)c1 = > 25 µM
N#CNc1nc(N)c(-c2ccc(Cl)cc2)c(C(=O)Nc2nccs2)n1 = > 100 µM

Would you mind giving TGI for every compound in the list below?
1. COc1cc(O)c2c(=O)c(OC)c(-c3ccc(OC)c(OC)c3)oc2c1
2. Nc1ccc(Nc2cc(=O)[nH]c(=O)[nH]2)cc1Cl
3. Cc1cc2c(cc1C)[n+](=O)c(C(=O)c1ccccc1)c(C(F)(F)F)n2[O-]
4. CC1(C)CC(=O)c2c(nc3c4c([nH]c(-c5ccc(Br)cc5)c24)CC(C)(C)C3)C1
5. Cn1c(=O)n2n(c1=O)C(C)(C13CC4CC(CC(C4)C1)C3)C13CC4CC(CC1C4)CC23 (stereo not drawn)
6. CCN(CCN(CC)C(=O)Nc1ccccc1)C(=O)Nc1ccccc1
7. CCc1ccc2c(c1)N(CC(C)CN(C)C)c1ccccc1S2 (stereo not drawn)

1: > 100 µM; 2: > 100 µM; 3: 3.88 µM; 4: > 100 µM; 5: > 100 µM; 6: > 100 µM; 7: 21.7 µM

Give one value of TGI per listed compound.
1. O=C1CCCC/C1=C\c1ccc(Cl)c(Cl)c1
2. C[C@@H]1O[C@@H](O[C@@H]2[C@@H](O)[C@H](OCCc3ccc(O)c(O)c3)O[C@H](CO)[C@H]2OC(=O)/C=C/c2ccc(O)c(O)c2)[C@H](O)[C@H](OC2OC[C@](O)(CO)[C@H]2O)[C@H]1O (stereo partly drawn)
3. COc1ccc(CNc2cc(=O)n(C)c(=O)[nH]2)cc1

1. > 100 µM
2. > 100 µM
3. > 100 µM

====

System: HS 578T breast
Experiment: NCI tumour cell line growth inhibition, 48 h; in the data active = GI50 below about 0.43 µM; inactive = the rest
Classes to choose from: true (1) for active, false (0) for inactive

CN1CCc2nc3sc(C(N)=O)c(N)c3c(-c3cccs3)c2C1 = false (0)
COc1ccc(Nc2ccnc(N3CCN(c4ccnc5cc(Cl)ccc45)CC3)n2)cc1 = false (0)
N#CCCNc1nonc1-c1nc2ccccc2n1CC(=O)c1ccc(NC(=O)[C@@H](N)CCCCN)cc1 = false (0)
COc1cc(C(=O)c2cc(C)c3[nH]c4ccc(O)cc4c3c2C)cc(OC)c1OC = true (1)
CC1C=CC(OC(=O)C(C)(O)CCC(O)(C(=O)OC2CC(O)C(C(C)C)CC2(C)O)C(C)C)(C(C)C)CC1 (stereo unspecified) = false (0)

In the following, a different molecule is considered.
Per the records of this test, what outcome belongs to COC(=O)c1cc(-c2ccc(OC)c(OC)c2)[nH]c1N/N=C/c1c(Cl)cccc1Cl ? false (0)

====

Tested on: OVCAR-5 ovarian
Assay: NCI tumour cell line growth inhibition, 48 h
measure: TGI (µM)
Answers are plain numbers, in µM.

Field: example entries. Status: answers known.
C[CH2][Hg][S]c1ccccc1C(=O)O = 3.26
CCCc1[nH]c2ccccc2c1-c1c(CCC)[nH]c2ccccc12 = 33.6
CN1CCN(CCCCCN=c2cc3c(=O)n(CCCCCN4CCN(C)CC4)c(=O)c4c(NCCCCCN5CCN(C)CC5)cc5c(O)n(CCCCCN6CCN(C)CC6)c(=O)c2c5c4-3)CC1 = 7.79

// batch mode: one TGI value per listed entry
1. O=C(NCCNCCO)c1cccc2ccc(-c3ccccc3)nc12
2. COc1cc(C(=O)Nc2cc(O)c(CC=C(C)C)c(O)c2)cc2c1O[C@]1(C)CC[C@@H](O)C(C)(C)[C@H]1C2
3. O=c1c2cc(F)ccc2sc2c(NCCCNCCO)nc3ccccc3c12
4. COC(=O)c1cc(-c2ccc(OC)c(OC)c2)[nH]c1N/N=C/c1c(Cl)cccc1Cl
5. CCc1ccc2c(c1)N(CC(C)CN(C)C)c1ccccc1S2 (centres undefined)
6. CCOC(=O)c1cc2c(cc1Cl)SC(=Nc1ccccc1)N(S(=O)(=O)c1ccc(Br)s1)S2(=O)=O

1. 18.2
2. 37
3. 3.05
4. 7.42
5. 19.9
6. 50.8

====

System: OVCAR-8 ovarian
Experiment: NCI tumour cell line growth inhibition, 48 h
measure: TGI

Solved cases below.
CCc1c(C)nc2sc3c(N)ncnc3c2c1C = > 25 µM
CC(C)(CCC(C)(C)N1OC1c1ccccc1)N1OC1c1ccccc1 (stereo not given) = > 100 µM
O=NN(CCF)C(=O)NC1CCSCC1 = > 100 µM
CCCCNc1nc(NC2OCC(OC(C)=O)C(OC(C)=O)C2OC(C)=O)c(N=O)c(=O)n1C (stereo not given) = > 10 µM
N#CNc1nc(N)c(-c2ccc(Cl)cc2)c(C(=O)Nc2nccs2)n1 = > 100 µM
COc1cc2c3c([nH]c2c(OC)c1OC)CCN(Cc1ccccc1)C3 = > 100 µM
Oc1c(-c2cc(C(F)(F)F)[nH]n2)cc(Cl)c(OCc2ccc(Cl)cc2)c1-c1ccc(Cl)c(C(F)(F)F)c1 = 6.45 µM
Oc1cccc2c1NCCC2 = 22.3 µM

Quick one: give me TGI for each item below, same order please.
1. CN(CCCNC(=O)c1cc(-c2ccccc2)nc2ccccc12)CCCNC(=O)c1cc(-c2ccccc2)nc2ccccc12
2. NC(Cc1ccc(S(=O)(=O)O)cc1)C(=O)NC(Cc1ccc(S(=O)(=O)O)cc1)C(=O)NC(Cc1ccc(S(=O)(=O)O)cc1)C(=O)NC(Cc1ccc(S(=O)(=O)O)cc1)C(=O)O (stereo not given)

1: 5.65 µM; 2: > 100 µM

====

Tested on: PC-3 prostate
Test: NCI tumour cell line growth inhibition, 48 h
measure: TGI

N#CCCC1(CCC#N)CCCCCCCCC(CCC#N)(CCC#N)C(O)C1O (stereo not given) = > 100 µM
COc1cc2ncc3c(nc4sccn43)c2cc1OC = > 100 µM
C=C1CC[C@@H](C)[C@](C)(CCc2ccoc2)C/C=C\C=C/1C(=O)O = > 100 µM

Hi there! I need TGI for each item below, if you can.
1. O=C(O)c1ccccc1N=Nc1c(O)c(S(=O)(=O)O)cc2cc(S(=O)(=O)O)ccc12
2. COc1ccc2c(-c3ccnc(Nc4cccc(OC(F)(F)F)c4)n3)cnn2n1

1. > 100 µM
2. > 25 µM

====

Test system: ACHN renal
Assay: NCI tumour cell line growth inhibition, 48 h
Can you tell me log10 of TGI for the items I'm about to list?
Each number you see is log10 of TGI, and the unit inside the log is µM.

Some compounds with recorded log10 of TGI:
Cn1ccnc1Oc1ccc(Cl)cc1 = 1.40
COc1cc2ncc3c(nc4sccn43)c2cc1OC = 1.41
COC(=O)c1cc(-c2ccc(OC)c(OC)c2)[nH]c1N/N=C/c1c(Cl)cccc1Cl = 1.12
Cc1[nH]nc(-c2ccon2)c1N=O = 1.45
CCCc1[nH]c2ccccc2c1-c1c(CCC)[nH]c2ccccc12 = 1.50
O=C1c2c(Br)sc(Br)c2[C@@H](NC(=O)C(F)(F)F)C1Br (stereo partly drawn) = 0.79
C/C(=N\O)c1cccc(Nc2cc(-n3ccnc3)c3ccccc3n2)c1 = 1.29
COc1cc(Oc2nc3ccc(C(F)(F)F)cc3nc2-c2ccccc2)cc(OC)c1OC = 1.61
COc1cc(-c2nn(-c3cccc(NC(=O)CCN4CCN(Cc5ccccc5)CC4)c3)cc2-c2ccncc2)ccc1Cl = 1.11
CCc1ccc2c(c1)N(CC(C)CN(C)C)c1ccccc1S2 (stereo not drawn) = 1.19

Provide the reported log10 of TGI of each entry below, same order.
1. Cc1ccc(C2C3Cc4ccccc4C3=NN2c2ccc(S(=O)(=O)/N=c3\scc(-c4ccccc4)n3-c3ccccc3)cc2)cc1 (stereo not drawn)
2. CC(C)(CCC(C)(C)N1OC1c1ccccc1)N1OC1c1ccccc1 (stereo not drawn)
3. C[C@@H]1Cc2cc(O)ccc2[C@H]2CC[C@]3(C)/C(=C/COCCN(C)C)CC[C@H]3[C@H]12 (tested in a mixture with another compound)
4. COc1ccc2c(c1)C(=O)c1c-2c(OCCN(C)C)nc2ccccc12
5. C=CCc1cc(Nc2c3ccc(Cl)cc3nc3ccc(OC)cc23)cc(CN(CC)CC)c1O

1: 1.70; 2: 1.55; 3: -0.70; 4: 0.74; 5: 1.12

====

Test system: RPMI-8226 leukemia
Test: NCI tumour cell line growth inhibition, 48 h
measure: TGI

Please review the entries below; each comes with its answer.
O=Nc1c(-c2c(O)[nH]c3ncccc23)[nH]c2ccccc12 = > 79 µM
CCc1c(C)nc2sc3c(N)ncnc3c2c1C = > 25 µM
COc1cc(C(=O)c2cc(C)c3[nH]c4ccc(O)cc4c3c2C)cc(OC)c1OC = > 100 µM
Nc1ccc(Nc2cc(=O)[nH]c(=O)[nH]2)cc1Cl = > 100 µM
COc1cc(Oc2nc3ccc(C(F)(F)F)cc3nc2-c2ccccc2)cc(OC)c1OC = > 100 µM
O=Cc1ccc2c(c1I)OCO2 = > 100 µM
COc1cc(O)c2c(=O)c(OC)c(-c3ccc(OC)c(OC)c3)oc2c1 = > 100 µM
Cc1cc(NS(=O)(=O)c2ccc(NC(=O)c3cccc4c(Nc5ccc(S(N)(=O)=O)cc5)c5ccccc5nc34)cc2)no1 = > 100 µM

// each molecule listed below needs its TGI
1. CCCC(S(=O)(=O)c1ccccc1)S(=O)(=O)c1ccccc1
2. N#CCCNc1nonc1-c1nc2ccccc2n1CC(=O)c1ccc(NC(=O)[C@@H](N)CCCCN)cc1
3. COc1cc(Nc2nc3cc(C(F)(F)F)ccc3n3cccc23)cc(OC)c1OC

["> 100 µM", "> 100 µM", "> 100 µM"]

Look at this molecule and give its reported TGI. CNNC(=NS(=O)(=O)c1cc(C#N)c(NNC)cc1S)NNC > 10 µM
